The entries below are paired with their reported viability at 72 h.
# assay details: Annexin V-FITC/PI flow cytometry, HaCaT
# Assay type: cell-based, human
# Design: concentration or dose not given beside the values
# run parameters: human, HaCaT cells (normal keratinocytes), representative dot plot, Figure 4E, read-out: LL quadrant, viable cells
# Method: To estimate the mechanism of anticancer activity of the selected compounds 1–3, 8, and 9, their effect on both early and late apoptosis was evaluated by flow cytometry analysis. […] Whereas the apoptosis-generating influence of derivatives 2 and 3 on normal keratinocytes was higher (29% and 23%), their selectivity measured by MTT methods is favorable. […]
test readout: viability at 72 h (%)

In [3]: df
Out[3]:
                      smiles_representation       test_readout  observed_value
0  FC(F)(F)c1ccc(NC(=S)Nc2cccc(C(F)(F)F)c2)cc1  viability at 72 h            70.1
1  FC(F)(F)c1cccc(NC(=S)Nc2ccc(Cl)c(Cl)c2)c1  viability at 72 h            57.6
2    Fc1ccc(NC(=S)Nc2cccc(C(F)(F)F)c2)cc1Cl  viability at 72 h            78.2
3     FC(F)(F)c1cccc(NC(=S)Nc2ccc(Cl)cc2)c1  viability at 72 h            79.5
4   FC(F)(F)c1cccc(NC(S)=Nc2ccc(Cl)cc2Cl)c1  viability at 72 h            65.7

###

# System: HaCaT cells
# assay details: MTT assay, HaCaT normal cells
# Format: cell-based, human
# run parameters: Homo sapiens, HaCaT, 72 h
The entries below are paired with their reported log10(IC50).
test readout: log10(IC50) (log10 of the value in µM)

compound	log10(IC50)
FC(F)(F)c1cccc(NC(=S)NCCc2ccccc2)c1 [Compound 12]	1.74
FC(F)(F)c1cccc(NC(=S)Nc2ccccc2C(F)(F)F)c1 [Compound 7]	1.82
N#Cc1ccc(NC(=S)Nc2cccc(C(F)(F)F)c2)cc1 [Compound 10]	1.70
COc1cccc2c1C(=O)c1c(O)c3c(c(O)c1C2=O)C[C@@](O)(C(=O)CO)C[C@@H]3O[C@H]1C[C@H](N)[C@H](O)[C@H](C)O1 [Doxorubicin, reference compound]	-0.52
FC(F)(F)c1ccc(NC(=S)Nc2cccc(C(F)(F)F)c2)cc1 [Compound 8]	1.62
Cc1ccc(Cl)cc1NC(=S)Nc1cccc(C(F)(F)F)c1 [Compound 6]	1.16
FC(F)(F)c1cccc(NC(S)=Nc2ccc(Cl)cc2Cl)c1 [Compound 3]	1.72
Cc1c(Cl)cccc1NC(=S)Nc1cccc(C(F)(F)F)c1 [Compound 5]	1.75
FC(F)(F)c1cccc(NC(=S)Nc2ccc(Cl)cc2)c1 [Compound 9]	1.85
FC(F)(F)c1cccc(NC(=S)Nc2ccc(Cl)c(Cl)c2)c1 [Compound 2]	1.39
FC(F)(F)c1cccc(NC(=S)Nc2cccc(Cl)c2Cl)c1 [Compound 4]	1.14
Fc1ccc(NC(=S)Nc2cccc(C(F)(F)F)c2)cc1Cl [Compound 1]	1.64
FC(F)(F)c1cccc(NC(=S)Nc2ccc(Br)cc2)c1 [Compound 11]	1.24

###

The entries below are paired with their reported Cell Number × 10^5.
# Tested on: PC3 cells
# assay details: Trypan blue assay, PC3
# Assay type: cell-based, human
# run parameters: PC3, 72 h, compound at IC50 concentration
# Experimental: In order to estimate the tumor and normal cell population density and their viability after treatment with compounds 1–3, 8, and 9, the trypan blue dye exclusion assay was performed. The live cell number of all cancerous cells incubated for 72 h with the studied thioureas was considerably lower in comparison with the controls (Table 2; Figure S1A). […] The live cell count was assessed by the trypan blue exclusion dye assay using an automated cell counter (CountessTM Invitrogen, Waltham, MA, USA). […]
test readout: Cell Number × 10^5

In [3]: df
Out[3]:
                      smiles_representation     observed_value
0  FC(F)(F)c1ccc(NC(=S)Nc2cccc(C(F)(F)F)c2)cc1  2.1 ± 0.12 × 10^5
1  FC(F)(F)c1cccc(NC(=S)Nc2ccc(Cl)c(Cl)c2)c1  2.4 ± 0.16 × 10^5
2     FC(F)(F)c1cccc(NC(=S)Nc2ccc(Cl)cc2)c1  1.2 ± 0.15 × 10^5
3   FC(F)(F)c1cccc(NC(S)=Nc2ccc(Cl)cc2Cl)c1  1.8 ± 0.18 × 10^5
4    Fc1ccc(NC(=S)Nc2cccc(C(F)(F)F)c2)cc1Cl  2.3 ± 0.15 × 10^5

###

The entries below are paired with their reported pIC50.
# Test system: SW480 cells
# assay details: MTT assay, SW480
# Type: cell-based, human
# run parameters: 72 h, 50% growth inhibition
pIC50: −log10 of the molar value.
test readout: pIC50

                                   compound  observed_value
0    Cc1ccc(Cl)cc1NC(=S)Nc1cccc(C(F)(F)F)c1            4.81
1    Fc1ccc(NC(=S)Nc2cccc(C(F)(F)F)c2)cc1Cl            4.90
2  N.N.[Cl][Pt][Cl] [Cisplatin, reference compound]            4.98

###

The entries below are paired with their reported IL-6 Concentration.
# System: IL-6 level, HaCaT cells
# assay details: IL-6 level ELISA, HaCaT
# Format: cell-based, human
# run parameters: 72 h, compound at IC50 concentration
test readout: IL-6 Concentration (pg/mL)

>>> df
                                   compound  observed_value
0  FC(F)(F)c1cccc(NC(S)=Nc2ccc(Cl)cc2Cl)c1 [Compound 3]             8.9
1  FC(F)(F)c1cccc(NC(=S)Nc2ccc(Cl)cc2)c1 [Compound 9]             9.0
2  FC(F)(F)c1ccc(NC(=S)Nc2cccc(C(F)(F)F)c2)cc1 [Compound 8]             9.1
3  Fc1ccc(NC(=S)Nc2cccc(C(F)(F)F)c2)cc1Cl [Compound 1]             8.7
4  FC(F)(F)c1cccc(NC(=S)Nc2ccc(Cl)c(Cl)c2)c1 [Compound 2]             9.1

###

# assay details: Trypan blue assay, HaCaT
# Type: cell-based, human
# run parameters: human, HaCaT cells, compound at IC50 concentration
The entries below are paired with their reported viability at 72 h.
test readout: viability at 72 h (%)

                      smiles_representation  units_symbol  observed_value
0   FC(F)(F)c1cccc(NC(S)=Nc2ccc(Cl)cc2Cl)c1             %              96
1  FC(F)(F)c1ccc(NC(=S)Nc2cccc(C(F)(F)F)c2)cc1             %              98
2  FC(F)(F)c1cccc(NC(=S)Nc2ccc(Cl)c(Cl)c2)c1             %              84
3     FC(F)(F)c1cccc(NC(=S)Nc2ccc(Cl)cc2)c1             %              98
4    Fc1ccc(NC(=S)Nc2cccc(C(F)(F)F)c2)cc1Cl             %              97

###

# System: SW480 cells
# assay details: Annexin V-FITC/PI flow cytometry, SW480
# Format: cell-based, human
# run parameters: SW480, 72 h, IC50 concentration
The entries below are paired with their reported cells in late apoptosis.
test readout: cells in late apoptosis

                      smiles_representation  observed_value
0     FC(F)(F)c1cccc(NC(=S)Nc2ccc(Cl)cc2)c1      24% ± 0.4%
1  FC(F)(F)c1cccc(NC(=S)Nc2ccc(Cl)c(Cl)c2)c1      95% ± 1.5%
2    Fc1ccc(NC(=S)Nc2cccc(C(F)(F)F)c2)cc1Cl      60% ± 1.8%
3  FC(F)(F)c1ccc(NC(=S)Nc2cccc(C(F)(F)F)c2)cc1      97% ± 1.2%

###

# System: SW620 cells
# assay details: Annexin V-FITC/PI flow cytometry, SW620
# Format: cell-based, human
# run parameters: SW620, 72 h, IC50 concentration
The entries below are paired with their reported cells in late apoptosis.
test readout: cells in late apoptosis

>>> df
                                   compound  observed_value
0  FC(F)(F)c1cccc(NC(S)=Nc2ccc(Cl)cc2Cl)c1 [Compound 3]           ≤ 26%
1  FC(F)(F)c1cccc(NC(=S)Nc2ccc(Cl)c(Cl)c2)c1 [Compound 2]      99% ± 0.5%
2  FC(F)(F)c1cccc(NC(=S)Nc2ccc(Cl)cc2)c1 [Compound 9]           ≤ 26%
3  Fc1ccc(NC(=S)Nc2cccc(C(F)(F)F)c2)cc1Cl [Compound 1]      57% ± 1.2%
4  FC(F)(F)c1ccc(NC(=S)Nc2cccc(C(F)(F)F)c2)cc1 [Compound 8]           ≤ 26%
